# tested.on: NoxA1 activation domain (AD)
# protocol.description: ITC binding of NoxA1 AD peptide with Nox1 peptides
# reported.conditions: read-out: Kd (affinity) for NoxA1 AD, n=3 independent experiments
pKd: −log10 of the molar value.
quantity: pKd

>>> measured("KLKTQKIYF [Nox1 peptide]")
"< 4.00"
